- Measurement Protocol: Rat telemetry protocol (core body temperature)
- Assay type: in vivo
- Details: core body temperature of rats at one hour post dosing (100 μmol/kg, p.o.), relative to vehicle
# Condition met = Δ Temp below 0.9 °C (exclusive); Condition not met = Δ Temp at/above 0.9 °C

Solved entries (count: 6):
>>> df
                            molecule_smiles       answer_label
0  CC1(C)C[C@@H](NC(=O)Nc2cccc3c2C[C@@H](O)CC3)c2ccc(F)c(Cl)c2O1  Condition not met
1  Cc1cc2c(NC(=O)N[C@@H]3C[C@@](C)(CF)Oc4cc(C(F)(F)F)ccc43)cccc2cn1      Condition met
2  CC1(C)C[C@@H](NC(=O)Nc2cccc3c2C[C@H](O)CC3)c2cc(F)ccc2O1      Condition met
3  Cn1ncc2c(NC(=O)N[C@@H]3CC(C)(C)Oc4cc(F)ccc43)cccc21  Condition not met
4  CCC1(CC)C[C@@H](NC(=O)Nc2cccc3c2C[C@@H](O)CC3)c2ccc(F)cc2O1      Condition met
5  Cn1ncc2c(NC(=O)N[C@@H]3CC(C)(C)Oc4ccc(F)cc43)cccc21      Condition met

# next compound below
Query :: Is 0.9 °C strictly greater than the compound's reported Δ Temp? compound: CC1(C)C[C@@H](NC(=O)Nc2cccc3c2C[C@@H](O)CC3)c2ccc(F)cc2O1
Result :: Condition not met

---

- Tgt: human TRPV1 receptor (hTRPV1) (Homo sapiens)
- Sequence (Q8NER1 whole entry): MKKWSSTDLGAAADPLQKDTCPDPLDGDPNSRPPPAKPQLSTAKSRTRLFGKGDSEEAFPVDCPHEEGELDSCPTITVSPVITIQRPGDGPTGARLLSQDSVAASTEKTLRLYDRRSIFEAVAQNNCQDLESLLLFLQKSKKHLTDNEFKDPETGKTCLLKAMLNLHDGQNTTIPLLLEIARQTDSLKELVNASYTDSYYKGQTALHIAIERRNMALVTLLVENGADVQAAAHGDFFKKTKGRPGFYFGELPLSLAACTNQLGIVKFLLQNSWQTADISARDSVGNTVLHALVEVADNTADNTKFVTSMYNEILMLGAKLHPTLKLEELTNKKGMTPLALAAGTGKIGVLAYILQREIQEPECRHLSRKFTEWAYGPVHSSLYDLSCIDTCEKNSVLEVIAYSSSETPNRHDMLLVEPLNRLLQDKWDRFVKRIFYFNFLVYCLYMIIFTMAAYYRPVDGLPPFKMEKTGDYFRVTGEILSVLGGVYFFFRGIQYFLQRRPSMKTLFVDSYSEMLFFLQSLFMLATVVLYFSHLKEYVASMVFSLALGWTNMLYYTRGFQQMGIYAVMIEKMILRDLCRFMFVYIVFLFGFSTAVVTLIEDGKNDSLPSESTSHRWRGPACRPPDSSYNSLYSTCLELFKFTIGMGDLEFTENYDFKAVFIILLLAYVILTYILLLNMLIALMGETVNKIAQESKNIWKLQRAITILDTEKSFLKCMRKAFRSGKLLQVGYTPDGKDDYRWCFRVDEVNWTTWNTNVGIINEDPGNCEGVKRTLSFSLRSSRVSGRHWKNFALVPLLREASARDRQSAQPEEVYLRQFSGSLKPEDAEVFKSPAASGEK
- Measurement Protocol: Capsaicin activation assay (Ca2+ influx, FLIPR)
- Details: 0.05 μM capsaicin, 1321N1 cells expressing hTRPV1
- Method: Dulbecco's modified Eagle medium (D-MEM) (with 4.5 mg/mL glucose) and fetal bovine serum were obtained from Hyclone Laboratories, Inc. (Logan, Utah). […] The functional activity of compounds at the TRPV1 receptor was determined with a Ca^2+ influx assay and measurement of intracellular Ca^2+ levels ([Ca^2+]i). […] Washing of the cells was performed to remove extracellular Fluo-4 AM (2×1 mL D-PBS per well), and afterward, the cells were placed in the reading chamber of the FLIPR instrument. […]
# y = IC50 below 20 nM (exclusive); n = IC50 at/above 20 nM

                            molecule_smiles  answer_label
0  O=C(Nc1cccc2c1C[C@@H](O)CC2)N[C@@H]1CC2(CCC2)Oc2ccc(F)cc21             n
1  Cn1ncc2c(NC(=O)N[C@@H]3CC(CF)(CF)Oc4cc(OC(F)(F)F)ccc43)cccc21             n
2  Cn1ncc2c(NC(=O)N[C@@H]3CC(C)(C)Oc4cc(F)ccc43)cccc21             n
3  CC1(C)C[C@@H](NC(=O)Nc2cccc3[nH]ncc23)c2cccc(C(F)(F)F)c2O1             y
4  Cc1cc2c(NC(=O)N[C@@H]3CC(C)(C)Oc4cc(C(F)(F)F)ccc43)c(F)ccc2cn1             n

# next compound below
Query :: Is 20 nM strictly greater than the compound's reported IC50? compound: O=C(Nc1cccc2c1C[C@@H](O)CC2)N[C@@H]1CC(CF)(CF)Oc2cc(Cl)ccc21
Result :: n
